// data source = the supplement of paper PMC10307832

In this section, each of the compounds is paired with its reported relative viability.
# Tested on: NCI-H2170
# Test Method Notes: relative viability (nuclei count vs DMSO), 5 days (fraction); higher = more cells survive
# Condition Description: first compound 0.04 µM

Compound: C[C@@H]1CN(CC(=O)Nc2ccc3c(c2)Cc2cccc(-c4cc(=O)cc(N5CCOCC5)o4)c2S3)C[C@H](C)O1 + Cc1cc(Nc2cc(N3CCN(C)CC3)nc(Sc3ccc(NC(=O)C4CC4)cc3)n2)n[nH]1 [Tozasertib] (partner 0.1 µM)
relative viability: 0.708
//
Compound: Clc1ccc(Nc2nnc(Cc3ccncc3)c3ccccc23)cc1 [Vatalanib] + CS(=O)(=O)CCNCc1ccc(-c2ccc3ncnc(Nc4ccc(OCc5cccc(F)c5)c(Cl)c4)c3c2)o1 [Lapatinib] (partner 2 µM)
relative viability: 0.261
//
Compound: COc1cc(N2CCC(C(N)=O)CC2)ccc1Nc1nc(N)c(Cl)c(Nc2ccccc2S(=O)(=O)C(C)C)n1 [HG-5-88-01] + NC(=O)Nc1cc(-c2cccc(F)c2)sc1C(=O)N[C@H]1CCCNC1 [AZD7762] (partner 0.2 µM)
relative viability: 0.819
//
Compound: COc1cc(N2CCC(C(N)=O)CC2)ccc1Nc1nc(N)c(Cl)c(Nc2ccccc2S(=O)(=O)C(C)C)n1 [HG-5-88-01] + C[C@@H](Oc1cc(-c2cnn(C3CCNCC3)c2)cnc1N)c1c(Cl)ccc(F)c1Cl [Crizotinib] (partner 1 µM)
relative viability: 1.23
//
Compound: C[C@@H]1CN(CC(=O)Nc2ccc3c(c2)Cc2cccc(-c4cc(=O)cc(N5CCOCC5)o4)c2S3)C[C@H](C)O1 + COc1cccc2cc(-c3nc([C@H]4CC[C@H](C(=O)O)CC4)n4ncnc(N)c34)[nH]c12 [OSI-027] (partner 0.5 µM)
relative viability: 0.712
//
Compound: Clc1ccc(Nc2nnc(Cc3ccncc3)c3ccccc23)cc1 [Vatalanib] + CCNC(=O)c1noc(-c2cc(C(C)C)c(O)cc2O)c1-c1ccc(CN2CCOCC2)cc1 [Luminespib] (partner 0.01 µM)
relative viability: 0.79
//
Compound: COc1cc(N2CCC(C(N)=O)CC2)ccc1Nc1nc(N)c(Cl)c(Nc2ccccc2S(=O)(=O)C(C)C)n1 [HG-5-88-01] + COc1cc2c(Oc3ccc(NC(=O)C4(C(=O)Nc5ccc(F)cc5)CC4)cc3F)ccnc2cc1OCCCN1CCOCC1 [Foretinib] (partner 0.25 µM)
relative viability: 1.01
//
Compound: Clc1ccc(Nc2nnc(Cc3ccncc3)c3ccccc23)cc1 [Vatalanib] + CS(=O)(=O)N1CCN(Cc2cc3nc(-c4cccc5[nH]ncc45)nc(N4CCOCC4)c3s2)CC1 [Pictilisib] (partner 1 µM)
relative viability: 0.319
//
Compound: C[C@@H]1CN(CC(=O)Nc2ccc3c(c2)Cc2cccc(-c4cc(=O)cc(N5CCOCC5)o4)c2S3)C[C@H](C)O1 + Nc1ncn([C@H]2C[C@H](O)[C@@H](CO)O2)c(=O)n1 [Decitabine] (partner 2 µM)
relative viability: 0.492
//
Compound: COc1cc(N2CCC(C(N)=O)CC2)ccc1Nc1nc(N)c(Cl)c(Nc2ccccc2S(=O)(=O)C(C)C)n1 [HG-5-88-01] + CCNC(=O)c1noc(-c2cc(C(C)C)c(O)cc2O)c1-c1ccc(CN2CCOCC2)cc1 [Luminespib] (partner 0.01 µM)
relative viability: 0.749
//
Compound: COc1cc(N2CCC(C(N)=O)CC2)ccc1Nc1nc(N)c(Cl)c(Nc2ccccc2S(=O)(=O)C(C)C)n1 [HG-5-88-01] + CC1(C)CCC(c2ccc(Cl)cc2)=C(CN2CCN(c3ccc(C(=O)NS(=O)(=O)c4ccc(N[C@H](CCN5CCOCC5)CSc5ccccc5)c(S(=O)(=O)C(F)(F)F)c4)cc3)CC2)C1 [Navitoclax] (partner 0.5 µM)
relative viability: 0.554
//
Compound: Clc1ccc(Nc2nnc(Cc3ccncc3)c3ccccc23)cc1 [Vatalanib] + NC(=O)Nc1cc(-c2cccc(F)c2)sc1C(=O)N[C@H]1CCCNC1 [AZD7762] (partner 0.2 µM)
relative viability: 0.988
//
Compound: Clc1ccc(Nc2nnc(Cc3ccncc3)c3ccccc23)cc1 [Vatalanib] + Cc1nc(Nc2ncc(C(=O)Nc3c(C)cccc3Cl)s2)cc(N2CCN(CCO)CC2)n1 [Dasatinib] (partner 0.075 µM)
relative viability: 0.521
//
Compound: COc1cc(N2CCC(C(N)=O)CC2)ccc1Nc1nc(N)c(Cl)c(Nc2ccccc2S(=O)(=O)C(C)C)n1 [HG-5-88-01] + Cc1nc(Nc2ncc(C(=O)Nc3c(C)cccc3Cl)s2)cc(N2CCN(CCO)CC2)n1 [Dasatinib] (partner 0.075 µM)
relative viability: 0.502

---

In this section, each of the compounds is paired with its reported relative viability.
# System: LCLC-103H
# Test Method Notes: relative viability (nuclei count vs DMSO), 5 days (fraction); higher = more cells survive
# Condition Description: first compound 1.265 µM
Assay Readout: relative viability

Compound: COc1cc(N2CCC(C(N)=O)CC2)ccc1Nc1nc(N)c(Cl)c(Nc2ccccc2S(=O)(=O)C(C)C)n1 [HG-5-88-01] + CC(C)C[C@H](NC(=O)[C@H](Cc1ccccc1)NC(=O)c1cnccn1)B(O)O [Bortezomib] (partner 0.002 µM)
Assay Result: 1.01

Compound: COc1cc(N2CCC(C(N)=O)CC2)ccc1Nc1nc(N)c(Cl)c(Nc2ccccc2S(=O)(=O)C(C)C)n1 [HG-5-88-01] + C[C@]1(O)C[C@@H](c2nc(-c3ccc4ccc(-c5ccccc5)nc4c3)c3c(N)nccn32)C1 [Linsitinib] (partner 1 µM)
Assay Result: 1.03

---

# Test system: HCC-78
# Test Method Notes: relative viability (nuclei count vs DMSO), 5 days (fraction); higher = more cells survive
# Condition Description: first compound 4 µM
In this section, each of the compounds is paired with its reported relative viability.

Compound: C[C@@H]1CN(CC(=O)Nc2ccc3c(c2)Cc2cccc(-c4cc(=O)cc(N5CCOCC5)o4)c2S3)C[C@H](C)O1 + O=C(c1cc(Cc2n[nH]c(=O)c3ccccc23)ccc1F)N1CCN(C(=O)C2CC2)CC1 [Olaparib] (partner 8 µM)
relative viability: 0.595
//
Compound: C[C@@H]1CN(CC(=O)Nc2ccc3c(c2)Cc2cccc(-c4cc(=O)cc(N5CCOCC5)o4)c2S3)C[C@H](C)O1 + CS(=O)(=O)CCNCc1ccc(-c2ccc3ncnc(Nc4ccc(OCc5cccc(F)c5)c(Cl)c4)c3c2)o1 [Lapatinib] (partner 2 µM)
relative viability: 0.703
//
Compound: Clc1ccc(Nc2nnc(Cc3ccncc3)c3ccccc23)cc1 [Vatalanib] + CC(C)C[C@H](NC(=O)[C@H](Cc1ccccc1)NC(=O)c1cnccn1)B(O)O [Bortezomib] (partner 0.002 µM)
relative viability: 0.571
//
Compound: COc1cc(N2CCC(C(N)=O)CC2)ccc1Nc1nc(N)c(Cl)c(Nc2ccccc2S(=O)(=O)C(C)C)n1 [HG-5-88-01] + CS(=O)(=O)CCNCc1ccc(-c2ccc3ncnc(Nc4ccc(OCc5cccc(F)c5)c(Cl)c4)c3c2)o1 [Lapatinib] (partner 2 µM)
relative viability: 0.226

---

# System: NCI-H2126
# Test Method Notes: relative viability (nuclei count vs DMSO), 5 days (fraction); higher = more cells survive
# Condition Description: first compound 0.1265 µM
In this section, each of the molecules is paired with its reported relative viability.

Molecule: Clc1ccc(Nc2nnc(Cc3ccncc3)c3ccccc23)cc1 [Vatalanib] + Nc1nc2[nH]cc(CCc3ccc(C(=O)N[C@@H](CCC(=O)O)C(=O)O)cc3)c2c(=O)[nH]1 [Pemetrexed] (partner 0.2 µM)
relative viability: 0.668
//
Molecule: C[C@@H]1CN(CC(=O)Nc2ccc3c(c2)Cc2cccc(-c4cc(=O)cc(N5CCOCC5)o4)c2S3)C[C@H](C)O1 + CS(=O)(=O)CCNCc1ccc(-c2ccc3ncnc(Nc4ccc(OCc5cccc(F)c5)c(Cl)c4)c3c2)o1 [Lapatinib] (partner 2 µM)
relative viability: 0.757
//
Molecule: Clc1ccc(Nc2nnc(Cc3ccncc3)c3ccccc23)cc1 [Vatalanib] + CS(=O)(=O)CCNCc1ccc(-c2ccc3ncnc(Nc4ccc(OCc5cccc(F)c5)c(Cl)c4)c3c2)o1 [Lapatinib] (partner 2 µM)
relative viability: 0.823
//
Molecule: C[C@@H]1CN(CC(=O)Nc2ccc3c(c2)Cc2cccc(-c4cc(=O)cc(N5CCOCC5)o4)c2S3)C[C@H](C)O1 + Cc1cc(Nc2cc(N3CCN(C)CC3)nc(Sc3ccc(NC(=O)C4CC4)cc3)n2)n[nH]1 [Tozasertib] (partner 0.1 µM)
relative viability: 0.83
//
Molecule: C[C@@H]1CN(CC(=O)Nc2ccc3c(c2)Cc2cccc(-c4cc(=O)cc(N5CCOCC5)o4)c2S3)C[C@H](C)O1 + CC(C)C[C@H](NC(=O)[C@H](Cc1ccccc1)NC(=O)c1cnccn1)B(O)O [Bortezomib] (partner 0.002 µM)
relative viability: 1.12
//
Molecule: Clc1ccc(Nc2nnc(Cc3ccncc3)c3ccccc23)cc1 [Vatalanib] + CC1(C)CCC(c2ccc(Cl)cc2)=C(CN2CCN(c3ccc(C(=O)NS(=O)(=O)c4ccc(N[C@H](CCN5CCOCC5)CSc5ccccc5)c(S(=O)(=O)C(F)(F)F)c4)cc3)CC2)C1 [Navitoclax] (partner 0.5 µM)
relative viability: 0.914
//
Molecule: C[C@@H]1CN(CC(=O)Nc2ccc3c(c2)Cc2cccc(-c4cc(=O)cc(N5CCOCC5)o4)c2S3)C[C@H](C)O1 + Cc1nc(NC(=O)N2CCC[C@H]2C(N)=O)sc1-c1ccnc(C(C)(C)C(F)(F)F)c1 [Alpelisib] (partner 2 µM)
relative viability: 0.765
//
Molecule: Clc1ccc(Nc2nnc(Cc3ccncc3)c3ccccc23)cc1 [Vatalanib] + Cc1cc(Nc2cc(N3CCN(C)CC3)nc(Sc3ccc(NC(=O)C4CC4)cc3)n2)n[nH]1 [Tozasertib] (partner 0.1 µM)
relative viability: 0.769
//
Molecule: Clc1ccc(Nc2nnc(Cc3ccncc3)c3ccccc23)cc1 [Vatalanib] + Nc1ncn([C@H]2C[C@H](O)[C@@H](CO)O2)c(=O)n1 [Decitabine] (partner 2 µM)
relative viability: 0.534
//
Molecule: COc1cc(N2CCC(C(N)=O)CC2)ccc1Nc1nc(N)c(Cl)c(Nc2ccccc2S(=O)(=O)C(C)C)n1 [HG-5-88-01] + Nc1nc2[nH]cc(CCc3ccc(C(=O)N[C@@H](CCC(=O)O)C(=O)O)cc3)c2c(=O)[nH]1 [Pemetrexed] (partner 0.2 µM)
relative viability: 0.667
//
Molecule: COc1cc(N2CCC(C(N)=O)CC2)ccc1Nc1nc(N)c(Cl)c(Nc2ccccc2S(=O)(=O)C(C)C)n1 [HG-5-88-01] + CC(C)C[C@H](NC(=O)[C@H](Cc1ccccc1)NC(=O)c1cnccn1)B(O)O [Bortezomib] (partner 0.002 µM)
relative viability: 1.12
//
Molecule: COc1cc(N2CCC(C(N)=O)CC2)ccc1Nc1nc(N)c(Cl)c(Nc2ccccc2S(=O)(=O)C(C)C)n1 [HG-5-88-01] + O=C(CCCCCCC(=O)Nc1ccccc1)NO [Vorinostat] (partner 1 µM)
relative viability: 0.813
